Tested on: ACHN renal
Experiment: NCI-60 one-dose screen, 48 h
Settings: 10 µM unless noted
About 83,000 compounds went through this panel and 20% of them were active in at least one assay; those are over-represented in the sample as a whole. Active and inactive are the calls of the source. How the source made its calls: active means growth percent below 10; inactive means the rest.
Classes used: active, inactive

# cpd_smiles, assigned_category
rows = [
    ("Cn1/c(=N/NC(N)=S)ccc2ccccc21", "inactive"),
    ("CCCCOc1ccc(/C=N/Nc2cc(C)nc3ccc(Cl)cc23)cc1", "active"),
    ("CC1(C)NCCC[C@]2(C)[C@H]3CC=C4[C@@H]5C[C@@](C)(CO)CC[C@]5(C)CC[C@@]4(C)[C@]3(C)CC[C@@H]12", "inactive"),
    ("COc1ccc(C(=O)c2cc3c(N)c(C(=O)Nc4ccc(Br)cc4)sc3nc2C)cc1", "inactive"),
]

---

System: SF-539 CNS
Assay: NCI-60 one-dose screen, 48 h (100 = growth as untreated, 0 = no growth, -100 = all killed)
Settings: 10 µM unless noted
The panel holds about 83,000 compounds, 20% with a hit somewhere; the sample as a whole holds those more often. Activity calls are given as the source filed them. The calls were made as follows: active = growth percent below 10; inactive = the rest.
reported_endpoint: growth

# compound, reported_result
rows = [
    ("CC1(C)CCCN1CCCN1c2ccccc2Sc2ccc(Cl)cc21", "78.2% (inactive)"),
    ("COc1ccc(NC(=O)c2sc3nc(C)c(C(=O)CCc4cccc(OC)c4)cc3c2N)cc1", "72% (inactive)"),
    ("COc1ccc(C2=C(c3ccccc3)c3ccc(OC(C)=O)cc3OC2(C)C)cc1", "102% (inactive)"),
    ("COc1ccc(C(O)c2cc3c(N)c(C(=O)Nc4ccc(Cl)cc4)sc3nc2C)cc1 (stereo not given)", "20.7% (inactive)"),
    ("COc1ccc(-c2nc(N/N=C/c3cccc(Br)c3)nc(N3CCOCC3)c2C#N)cc1", "55.9% (inactive)"),
    ("N/C(=N\\N=C\\c1cc2ccccc2[nH]1)N/N=C/c1cc2ccccc2[nH]1", "104% (inactive)"),
    ("COc1ccc(-c2nc(SC(C)C)nc(NNC(N)=O)c2C#N)cc1", "85.1% (inactive)"),
    ("O=C(N/N=C/c1cccnc1)c1ccccc1Nc1cccc(C(F)(F)F)c1", "96.7% (inactive)"),
    ("O=C1Nc2c(ccc(Cl)c2Cl)/C1=C/c1ccc(F)cc1", "94.8% (inactive)"),
    ("CCN1C(=O)N(CC)C2NC(SC)=NC21 (stereo not given)", "98.7% (inactive)"),
    ("Clc1ccc2c(c1)c(-c1ccccc1)nc1nncn12", "95.1% (inactive)"),
    ("CN1CCN(Cc2ccc(NC(=O)c3cncc(C#Cc4cnccc4C(F)(F)F)c3)cc2C(F)(F)F)CC1", "28.8% (inactive)"),
    ("CCN(CC)CCCC(Nc1c2ccc(Cl)cc2nc2ccc(OC)cc12)c1ccc(Cl)cc1 (stereo not given)", "-90.9% (active)"),
    ("COc1cc2nnn3c4ncccc4c(N=O)c3c2cc1OC", "98.6% (inactive)"),
    ("CCCCCOc1ccc(/C=N/Nc2cc(C)nc3ccc(Br)cc23)cc1", "-83.7% (active)"),
    ("O=C1CCCCCCCCC(O)C(O)CCCC(c2cccs2)O1 (stereo not given)", "106% (inactive)"),
    ("Clc1ccc(N2N=C(c3cccc(Nc4ccncc4)c3)CC2c2ccc3c(c2)OCO3)cc1 (stereo not given)", "81.9% (inactive)"),
    ("NC(=O)CN1CCN(c2ccccc2Cl)CC1", "107% (inactive)"),
    ("CC(C)(C#N)N1CCN(c2ccccc2Cl)CC1", "96.8% (inactive)"),
    ("COc1cc(/C=N/NC(=O)c2ccccc2Nc2cccc(C(F)(F)F)c2)ccc1O", "105% (inactive)"),
    ("O=S(=O)(NCCNc1nccc(-c2c(-c3ccc(F)c(O)c3)nc3sccn23)n1)c1ccccc1", "94.3% (inactive)"),
    ("COc1ccccc1C(C[N+](=O)[O-])c1c(-c2ccccc2)[nH]c2cc(C)ccc12 (stereo not given)", "84.2% (inactive)"),
    ("O=C(N/N=C/c1cccc(O)c1)c1ccccc1Nc1cccc(C(F)(F)F)c1", "103% (inactive)"),
    ("COc1ccc(Cc2nc3cc(OC)c(OC)cc3c(=O)[nH]2)cc1", "100% (inactive)"),
    ("CNC(=O)c1c(NC(=O)c2ccc(C(C)C)cc2)sc2c(CN(C)C)c(O)ccc12", "97.3% (inactive)"),
]

meta.source: PubChem BioAssay (NCI)
